system: S. pneum 6303; test: MIC, agar incorporation method; type: cell-based, Streptococcus pneumoniae; details: S. pneum 6303; agar incorporation
Task for the reader: assign each of the following compounds its reported MIC.
Include the unit right after the number.

Recorded results for 5 compounds are shown here.
compound="CC(=O)NC[C@H]1CN(c2ccc(N3C[C@@H]4[C@@H](CN(C)Cc5ccc([N+](=O)[O-])s5)[C@@H]4C3)c(F)c2)C(=O)O1 [Compound No. 39]" property_label=MIC result="0.5 µg/mL"
compound="CC(=O)NC[C@H]1CN(c2ccc(N3CC4C(C3)C4N(C)C(=O)Cc3cccs3)c(F)c2)C(=O)O1 (stereo partly shown) [Compound No. 71]" property_label=MIC result="4 µg/mL"
compound="CC(=O)NC[C@H]1CN(c2ccc(N3CCC(N(C)C(=O)c4ccc([N+](=O)[O-])o4)CC3)c(F)c2)C(=O)O1 [Compound No. 44]" property_label=MIC result="2 µg/mL"
compound="CC(=O)NC[C@H]1CN(c2ccc(N3CC4C(C3)C4N(C)Cc3ccc(C=O)o3)c(F)c2)C(=O)O1 (stereo partly shown) [Compound No. 72]" property_label=MIC result="4 µg/mL"
compound="CC(=O)NC[C@H]1CN(c2ccc(N3CC4C(C3)C4N(C)C(=O)c3ccsc3)c(F)c2)C(=O)O1 (stereo partly shown) [Compound No. 73]" property_label=MIC result="4 µg/mL"

Take each entry in turn and give its MIC.
1. CC(=O)NC[C@H]1CN(c2ccc(N3CCN(Cc4ccc(C=O)o4)CC3)c(F)c2)C(=O)O1 [Compound No. 02]
2. CC(=O)NC[C@H]1CN(c2ccc(N3C[C@@H]4[C@@H](CN(C)C(=O)Cc5cccs5)[C@@H]4C3)c(F)c2)C(=O)O1 [Compound No. 38]
3. CC(=O)NC[C@H]1CN(c2ccc(N3CCN(C(=O)C(=O)c4cccs4)CC3)c(F)c2)C(=O)O1 [Compound No. 07]
4. CC(=O)NC[C@H]1CN(c2ccc(N3CCN(Cc4cccs4)CC3)c(F)c2)C(=O)O1 [Compound No. 12]
5. CC(=O)NC[C@H]1CN(c2ccc(N3CCN(Cc4ccc([N+](=O)[O-])o4)CC3)c(F)c2)C(=O)O1.O=C(O)CC(O)(CC(=O)O)C(=O)O [Compound No. 17]

4 µg/mL
1 µg/mL
2 µg/mL
8 µg/mL
2 µg/mL

Take each entry in turn and give its MIC.
1. CC(=O)NC[C@H]1CN(c2ccc(N3CCN(Cc4ccc([N+](=O)[O-])o4)CC3)c(F)c2)C(=O)O1 [Compound No. 15]
2. CC(=O)NC[C@H]1CN(c2ccc(N3CCN(C(=O)c4ccc(CCl)o4)CC3)c(F)c2)C(=O)O1 [Compound No. 05]
3. COC(=O)Cc1ccc(NC(=O)ON=Cc2ccc(CN3CCN(c4ccc(N5C[C@H](CNC(C)=O)OC5=O)cc4F)CC3)o2)cc1 [Compound No. 61]

["1 µg/mL", "4 µg/mL", "8 µg/mL"]

* * *

tested on: MRSA 562; test: MIC, agar incorporation method; format: cell-based, Staphylococcus aureus; conditions: MRSA 562; agar incorporation; Table 1
Property Label: MIC (µg/mL)
Answers are plain numbers, in µg/mL.

smiles_representation=CC(=O)NC[C@H]1CN(c2ccc(N3CCN(Cc4ccc(C=NN)o4)CC3)c(F)c2)C(=O)O1 system_name="MRSA 562" readout_number=1
smiles_representation=CC(=O)NC[C@H]1CN(c2ccc(N3CCN(C(=O)c4ccoc4)CC3)c(F)c2)C(=O)O1 system_name="MRSA 562" readout_number=1
smiles_representation=CC(=O)NC[C@H]1CN(c2ccc(N3C[C@@H]4[C@@H](CN(C)C(=O)Cc5cccs5)[C@@H]4C3)c(F)c2)C(=O)O1 system_name="MRSA 562" readout_number=4
smiles_representation=CC(=O)NC[C@H]1CN(c2ccc(N3C[C@@H]4[C@H](C3)[C@H]4N(C)Cc3ccc([N+](=O)[O-])s3)c(F)c2)C(=O)O1 system_name="MRSA 562" readout_number=1
smiles_representation=CC(=O)NC[C@H]1CN(c2ccc(N3CCC(N(C)Cc4ccc([N+](=O)[O-])o4)CC3)c(F)c2)C(=O)O1 system_name="MRSA 562" readout_number=0.5

Take each entry in turn and give its MIC.
1. CC(=O)NC[C@H]1CN(c2ccc(N3CCN(C(=O)C(=O)c4cccs4)CC3)c(F)c2)C(=O)O1
2. CC(=O)NC[C@H]1CN(c2ccc(N3CCC(N(C)Cc4ccc([N+](=O)[O-])s4)CC3)c(F)c2)C(=O)O1

1. 2
2. 1

Attribution: patent US6956040B2
